Here, each record is paired with measured IC50 data.
- Test system: Leishmania donovani
- test.name: Antileishmanial activity against Leishmania donovani MHOM-ET-67/L82 amastigotes by axenic assay
- Assay type: functional, organism-based
# unit: µg/mL | format: bare number

A selection of reference data follows.
compound="CC(C)(N)CNC(=O)CC1CC[C@]2(CC1)OC[C@]1(O2)C2CC3CC(C2)CC1C3 (stereo not given in full)" result_number=20
compound="CC(C)(N)CNC(=O)C[C@H]1CC[C@]2(CC1)OO[C@]1(O2)C2CC3CC(C2)CC1C3 [OZ277]" result_number=24
compound="C[C@@H]1CC[C@H]2[C@@H](C)C(=O)O[C@@H]3O[C@@]4(C)CC[C@@H]1[C@]32OO4 [ARTEMISININ]" result_number=8.8

# evaluate next
For CCCCCCCCCCCCCCCCOP(=O)([O-])OCC[N+](C)(C)C [MILTEFOSINE] , what is its reported IC50?
0.2
